Assay: Cell Viability - LYMP2-019 (AID 973);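 also: cells exposed to compound for 24 h at 37 °C; nearly all actives have a fitted effect of over 55% in size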
Conditions: LYMP2-019 lymphoblastoid cell line viability; series mostly up to 92.2 µM
Records with an inconclusive call do not appear. Calls of active or inactive are those of the source. Calls follow the shape of the dose curve; as a rule, active = well fitted cell-killing curve with a large enough effect; inconclusive = small, poorly fitted or top-dose-only effect; inactive = flat fitted curve, though single readings scatter.
Log the outcome using a class from true for active, false for inactive

# example entries with known answers
In [3]: df
Out[3]:
                                   molecule  answerlabel
0          CCCCCCCCC1CO1 (stereo not drawn)        false
1  Cc1cc(-c2ccc(N=Nc3cc(S(=O)(=O)O)c4ccccc4c3N)c(C)c2)ccc1N=Nc1cc(S(=O)(=O)O)c2ccccc2c1N        false
2  Oc1cc2c(cc1O)[C@H]1c3ccc(O)c(O)c3OC[C@@]1(O)C2         true
3                     Cc1ccc(S(N)(=O)=O)cc1        false
4                       CCOc1ccc2nc(N)sc2c1        false
5          CC(C)COC(=O)COc1cc(Cl)c(Cl)cc1Cl        false

Look up the recorded call for "c1ccc(COCc2ccccc2)cc1" in this test.
false

Returns: the outcome recorded for "Nc1cnn([C@@H]2O[C@H](CO)[C@@H](O)[C@H]2O)c(=O)n1" in this assay.
false

// outcome(item) with item = Cc1ccccc1OCC1CO1 (stereo not drawn)
false

Which outcome was assigned to "Cc1cc(=O)oc2cc(O)cc(O)c12" in this test?
false

Recorded test call requested for "CC(C)S"
false

What did the test return for "Oc1cc(Cl)cc(Cl)c1Cl" ?
false

Please state the recorded outcome for this molecule: "Cc1c2ccccc2c(C)c2c1ccc1ccccc12"
false
